# Target Under Test: Δ49N-hChoKα (Homo sapiens, UniProt P35790)
# Construct: cDNA fragment 362-1534, corresponding to aminoacids 50 457; GST (N, cleaved yes); PreScission Protease recognition site (N); made in house; host or cells: Escherichia coli BL21pLysS (DE3)
# Sequence (P35790 50-439 isoform P35790-2): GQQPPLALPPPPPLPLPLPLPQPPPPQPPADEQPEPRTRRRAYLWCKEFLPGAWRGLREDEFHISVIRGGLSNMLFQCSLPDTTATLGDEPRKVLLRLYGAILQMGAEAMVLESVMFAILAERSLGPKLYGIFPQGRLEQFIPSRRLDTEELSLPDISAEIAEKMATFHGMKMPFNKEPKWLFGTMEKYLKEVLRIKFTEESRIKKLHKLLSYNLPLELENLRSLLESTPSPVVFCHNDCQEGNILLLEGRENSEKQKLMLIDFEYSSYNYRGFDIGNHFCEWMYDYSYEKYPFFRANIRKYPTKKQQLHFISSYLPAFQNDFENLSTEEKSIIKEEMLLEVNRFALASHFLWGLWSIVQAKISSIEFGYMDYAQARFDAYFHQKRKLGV
# Test Protocol: Biochemical kinase inhibition assay (Kinase-Glo luminescent) on Δ49N-hChoKα
# Test Context: recombinant Δ49N-hChoKα 2.2 nM, ATP 5 μM, choline 5 μM, 60 min rt; read-out: ChoKα IC50
Class (required): determined from IC50; valid ranges are lower range = under 60 nM, middle range = from 60 nM up to 300 nM, upper range = 300 nM and over

| Compound | Assigned Label |
| --- | --- |
| CC1(C)Cc2cnc(N)nc2-c2[nH]nc(C(=O)N3CCN(c4ccccc4)CC3)c21 [compound 161] | upper range |
| CN1CCC(NC(=O)Cc2csc(NC(=O)c3n[nH]c4c3C(C)(C)Cc3cnc(N)nc3-4)n2)CC1 [compound 86] | lower range |
| CN1CCN(C2CCN(C(=O)c3ccc(NC(=O)c4n[nH]c5c4C(C)(C)Cc4cnc(N)nc4-5)cc3)CC2)CC1 [compound 41] | middle range |
| CC1(C)Cc2cnc(N)nc2-c2[nH]nc(C(=O)Nc3nc(CC(=O)O)cs3)c21 [compound 42] | lower range |
| CC1CCN(C2CCN(C(=O)Cc3csc(NC(=O)c4n[nH]c5c4CC(C)(C)c4cnc(N)nc4-5)n3)CC2)CC1 [compound 231] | lower range |
| CC1CCN([C@H]2CC[C@H](OCc3csc(NC(=O)c4n[nH]c5c4C(C)(C)Cc4cnc(N)nc4-5)n3)CC2)CC1 [compound 170] | lower range |
| CC1(C)Cc2cnc(N)nc2-c2[nH]nc(C(=O)Nc3nc(CC(=O)NC4CCN(C5CCCCC5)CC4)cs3)c21 [compound 145] | lower range |
| CC1(C)Cc2cnc(N)nc2-c2[nH]nc(C(=O)N3CCC(N4CCCCC4)CC3)c21 [compound 38] | upper range |
| CCOC(=O)Cc1csc(NC(=O)c2n[nH]c3c2C(C)(C)Cc2cnc(N)nc2-3)n1 [compound 33] | upper range |
| CC1(C)Cc2cnc(N)nc2-c2[nH]nc(C(=O)Nc3nc(C4(C(=O)O)CC4)cs3)c21 [compound 129] | middle range |
| CN1CCC(NC(=O)c2ccc(NC(=O)c3n[nH]c4c3C(C)(C)Cc3cnc(N)nc3-4)cc2)CC1 [compound 8] | middle range |
| CC1CCN(C2CCN(Cc3cccc(NC(=O)c4n[nH]c5c4C(C)(C)Cc4cnc(N)nc4-5)c3)CC2)CC1 [compound 112] | middle range |
| CC1(C)Cc2cnc(N)nc2-c2[nH]nc(C(=O)Nc3nccs3)c21 [compound 61] | middle range |
| CC1(C)Cc2cnc(N)nc2-c2[nH]nc(C(=O)Nc3ccc(C(=O)NC4CC4)cc3)c21 [compound 31] | middle range |

----------
Listing: IC50 of selected molecules
# Target Under Test: Δ49N-hChoKα (Homo sapiens)
# Construct: cDNA fragment 362-1534, corresponding to aminoacids 50 457; GST (N, cleaved yes); PreScission Protease recognition site (N); made in house; host or cells: Escherichia coli BL21pLysS (DE3)
# Test Protocol: Biochemical kinase inhibition assay (Kinase-Glo luminescent) on Δ49N-hChoKα
# Test Context: recombinant Δ49N-hChoKα 2.2 nM, ATP 5 μM, choline 5 μM, 60 min rt; read-out: ChoKα IC50

| Structure Smiles String | Target Under Test | Quantity Unit | IC50 |
| --- | --- | --- | --- |
| CNc1ncc2c(n1)-c1c(c(C(=O)Nc3nc(CC(=O)N4CCC(N5CCC(C)CC5)CC4)cs3)nn1C)C(C)(C)C2 | Δ49N-hChoKα (Homo sapiens) | nM | 52 |
| CN1CCC(NC(=O)c2ccc(CNC(=O)c3n[nH]c4c3C(C)(C)Cc3cnc(N)nc3-4)cc2)CC1 | Δ49N-hChoKα (Homo sapiens) | nM | 136 |
| CC1(C)Cc2cnc(N)nc2-c2[nH]nc(C(=O)N3CCC(N4CCCC4)CC3)c21 | Δ49N-hChoKα (Homo sapiens) | nM | 480 |
| CC1(C)Cc2cnc(N)nc2-c2[nH]nc(C(=O)Nc3ncc(CC(=O)N4CCC(N5CCCCC5)CC4)s3)c21 | Δ49N-hChoKα (Homo sapiens) | nM | 47 |
| CC1(C)Cc2cnc(N)nc2-c2[nH]nc(C(=O)Nc3ccc(C(=O)NC4CCOCC4)cc3)c21 | Δ49N-hChoKα (Homo sapiens) | nM | 195 |
| CC1(C)Cc2cnc(N)nc2-c2[nH]nc(C(=O)Nc3nc(C(F)(F)C(=O)N4CCC(N5CCCCC5)CC4)cs3)c21 | Δ49N-hChoKα (Homo sapiens) | nM | 13 |
| CC1(C)Cc2cnc(N)nc2-c2[nH]nc(C(=O)Nc3ccc(C(=O)NC4CCC4)cc3)c21 | Δ49N-hChoKα (Homo sapiens) | nM | 110 |
| CC1(C)Cc2cnc(N)nc2-c2[nH]nc(C(=O)Nc3nc(C(=O)O)cs3)c21 | Δ49N-hChoKα (Homo sapiens) | nM | 81 |
| CN(C)C1CCN(C(=O)Cc2csc(NC(=O)c3n[nH]c4c3C(C)(C)Cc3cnc(N)nc3-4)n2)CC1 | Δ49N-hChoKα (Homo sapiens) | nM | 10 |
| Cc1csc(NC(=O)c2n[nH]c3c2C(C)(C)Cc2cnc(N)nc2-3)n1 | Δ49N-hChoKα (Homo sapiens) | nM | 66 |
| CC1(C)Cc2cnc(N)nc2-c2[nH]nc(C(=O)NCc3ccc(C(=O)N4CCC(N5CCCCC5)CC4)cc3)c21 | Δ49N-hChoKα (Homo sapiens) | nM | 180 |
| CN(C)C1CCN(Cc2ccc(NC(=O)c3nn(C)c4c3C(C)(C)Cc3cnc(N)nc3-4)cc2)CC1 | Δ49N-hChoKα (Homo sapiens) | nM | 16 |
| Cn1nc(C(=O)Nc2cccc(CN3CCC(N4CCCCC4)CC3)c2)c2c1-c1nc(N)ncc1CC2(C)C | Δ49N-hChoKα (Homo sapiens) | nM | 431 |
| CC1(C)Cc2cnc(N)nc2-c2[nH]nc(C(=O)Nc3ccc(C(=O)N4CCC(N5CCC(F)(F)CC5)CC4)cc3)c21 | Δ49N-hChoKα (Homo sapiens) | nM | 151 |
| CC1(C)Cc2cnc(N)nc2-c2[nH]nc(C(=O)NC3CCCCC3)c21 | Δ49N-hChoKα (Homo sapiens) | nM | 748 |

----------
# Target Under Test: Δ49N-hChoKα (Homo sapiens, UniProt P35790)
# Construct: cDNA fragment 362-1534, corresponding to aminoacids 50 457; GST (N, cleaved yes); PreScission Protease recognition site (N); made in house; host or cells: Escherichia coli BL21pLysS (DE3)
# Test Protocol: Biochemical kinase inhibition assay (Kinase-Glo luminescent) on Δ49N-hChoKα
# Test Context: recombinant Δ49N-hChoKα 2.2 nM, ATP 5 μM, choline 5 μM, 60 min rt; read-out: ChoKα IC50
# Method: […] The biochemical activity of compounds against Δ49N-ChoKα and ChoK3 FL were determined using the Kinase-Glo™ Luminescent Kinase Assay (Promega cat. V6711). The assay is based on incubation of the recombinant Δ49N-hChoKα and hChoKβ FL produced in house, 2.2 nM and 30 nM, respectively, with the specific substrates, choline (Sigma-Aldrich-C7017) and ATP, followed by quantification, at the end of reaction time, of the residual not reacted ATP. […]
Listing: IC50 of selected compounds
Observable: IC50 (µM)

| Structure Smiles String | Target Under Test | Observed Value |
| --- | --- | --- |
| CC1(C)Cc2cnc(N)nc2-c2[nH]nc(C(=O)Nc3ccc(C(=O)N4CCC(N5CCOCC5)CC4)cc3)c21 | Δ49N-hChoKα (Homo sapiens, UniProt P35790) | 0.215 |
| Cc1csc(NC(=O)c2nn(CCO)c3c2C(C)(C)Cc2cnc(N)nc2-3)n1 | Δ49N-hChoKα (Homo sapiens, UniProt P35790) | 0.458 |
| CNc1ncc2c(n1)-c1[nH]nc(C(=O)Nc3nc(CC(=O)N4CCC(N5CCCCC5)CC4)cs3)c1C(C)(C)C2 | Δ49N-hChoKα (Homo sapiens, UniProt P35790) | 0.018 |
| CCOC(=O)c1ccc(NC(=O)c2n[nH]c3c2C(C)(C)Cc2cnc(N)nc2-3)cc1 | Δ49N-hChoKα (Homo sapiens, UniProt P35790) | 0.481 |

----------
# Target Under Test: hChoKβ FL (Homo sapiens)
# Construct: hChoKβ full length (FL), corresponding to aminoacids 2-395; GST (N, cleaved yes); PreScission Protease recognition site (N); made in house; host or cells: Escherichia coli BL21pLysS (DE3)
# Sequence (Q9Y259 2-395): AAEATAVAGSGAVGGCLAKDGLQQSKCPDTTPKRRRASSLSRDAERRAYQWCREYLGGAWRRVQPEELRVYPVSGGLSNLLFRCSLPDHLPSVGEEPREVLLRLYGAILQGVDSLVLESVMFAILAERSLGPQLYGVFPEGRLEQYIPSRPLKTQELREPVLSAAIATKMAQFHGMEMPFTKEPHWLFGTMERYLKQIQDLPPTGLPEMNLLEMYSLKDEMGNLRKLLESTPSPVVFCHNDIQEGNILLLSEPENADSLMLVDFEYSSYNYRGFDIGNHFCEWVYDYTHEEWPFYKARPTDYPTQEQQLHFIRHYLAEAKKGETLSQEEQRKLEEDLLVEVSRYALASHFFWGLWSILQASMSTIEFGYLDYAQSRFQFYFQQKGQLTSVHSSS
# Test Protocol: Biochemical kinase inhibition assay (Kinase-Glo luminescent) on hChoKβ FL
# Test Context: recombinant hChoKβ FL 30 nM, ATP 5 μM, choline 20 μM, 60 min rt; read-out: ChoKβ IC50
Each record is given 1 if its reported IC50 is strictly below 1000 nM. Records at or above 1000 nM are given -1.

| Compound | Assigned Label |
| --- | --- |
| CC1(C)Cc2cnc(N)nc2-c2[nH]nc(C(=O)NCc3ccc(C(=O)N4CCC(N5CCCCC5)CC4)cc3)c21 [compound 165] | 1 |
| Cc1cnc(NC(=O)c2n[nH]c3c2C(C)(C)Cc2cnc(N)nc2-3)s1 [compound 65] | -1 |
| CC(C)(C)OC(=O)NC1CCN(Cc2cccc(NC(=O)c3n[nH]c4c3C(C)(C)Cc3cnc(N)nc3-4)c2)CC1 [compound 114] | -1 |
| CC1(C)Cc2cnc(N)nc2-c2[nH]nc(C(=O)Nc3nc(CC(=O)O)cs3)c21 [compound 42] | -1 |
| CC1CCN(C2CCN(C(=O)c3ccc4nc(NC(=O)c5n[nH]c6c5C(C)(C)Cc5cnc(N)nc5-6)sc4c3)CC2)CC1 [compound 228] | 1 |
| CN1CCC(NC(=O)Cc2cnc(NC(=O)c3n[nH]c4c3C(C)(C)Cc3cnc(N)nc3-4)s2)CC1 [compound 74] | -1 |
| CC1(C)Cc2cnc(N)nc2-c2[nH]nc(C(=O)Nc3nc(C4(C(=O)O)CC4)cs3)c21 [compound 129] | -1 |
